Target Or System: His-tagged CD8α human recombinant protein (TP760215, Origene) (human) (UniProt P01732)
Sequence (P01732 22-182 limits assumed): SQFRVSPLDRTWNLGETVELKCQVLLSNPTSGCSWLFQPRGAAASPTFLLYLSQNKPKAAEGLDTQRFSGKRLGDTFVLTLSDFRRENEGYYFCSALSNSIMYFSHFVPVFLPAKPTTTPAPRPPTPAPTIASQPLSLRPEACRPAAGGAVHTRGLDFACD
Measurement Description: sandwich ELISA; biotinylated ligand on NeutrAvidin plate, His-tagged CD8α titrated, anti-His-AP detection
Measured Parameter: EC50 (nM)
# value in nM; strip the unit string

// EC50 lookup, key: FFRLY (all residues D-amino acids (lower case); N-terminal biotin-PEG3; triazole-cyclized (Cy) between flanking Pra and Az4) [biotin-PEG3-Cy(ffrly)] 56

// query EC50 value for entry WPLRF (all residues D-amino acids (lower case); N-terminal biotin-PEG3; triazole-cyclized (Cy) between flanking Pra and Az4) [biotin-PEG3-Cy(wplrf)] 16

If you can, please state the reported EC50 value of WSVNV (all residues D-amino acids (lower case); N-terminal biotin-PEG3; triazole-cyclized (Cy) between flanking Pra and Az4) [biotin-PEG3-Cy(wsvnv)] . 9

Requested read-out: EC50. Entry: RWFNV (all residues D-amino acids (lower case); N-terminal biotin-PEG3; triazole-cyclized (Cy) between flanking Pra and Az4) [biotin-PEG3-Cy(rwfnv)] 62
